Test system: UACC-257
METHOD_SUMMARY: NCI tumour cell line growth inhibition, 48 h
Calls of active or inactive are those of the source. Rule as the data show it: active = GI50 up to about 1.1 µM and inactive = higher.
Return exactly one item of active, inactive

Enquiry: Outcome? CC(C)(C)NCc1cc(C(C)(C)C)cc(-c2ccc(Cl)cc2)c1O
Return: inactive

Enquiry: Outcome? Cc1nc(C(N)=S)sc1C(=O)CC(=O)C(=O)Nc1nc2ccccc2[nH]1
Return: inactive

Enquiry: Outcome? CCCCCNC(=O)CCCCCCCCCCCNC(=O)CCCCCCCCCCN1C=CC(=CC=C2C=CC(=O)C=C2)C=C1
Return: inactive

Enquiry: Outcome? COc1cc(-c2ccccc2)c(OC)cc1CCl
Return: inactive

Enquiry: Outcome? N=C(c1ccccc1)N(c1ccccc1)c1ccccc1
Return: inactive

Enquiry: Outcome? CC1=CC2=C(C=O)C(=O)[C@](C)(O)[C@@H](O)C2=CO1
Return: inactive

Enquiry: Outcome? O=CC1C(=O)Nc2nc3ccccc3n2C1c1ccccc1 (stereo not given)
Return: inactive

Enquiry: Outcome? COc1ccc(OC)c2nc3c(C(=O)NCCN(C)C)cccc3nc12
Return: inactive

Enquiry: Outcome? CC(C)(C)[C@H]1CO[C@]2(c3ccccc3)[C@@H]3C[C@@H]3C(=O)N12
Return: inactive

Enquiry: Outcome? O=C(NCc1ccccc1)c1cnc(Cl)cn1
Return: inactive

Enquiry: Outcome? C/C=C1/CN2[C@@H](C3=C[C@@H]4[C@@H]5N(C3=O)c3ccccc3[C@@]53CCN5C/C(=C/C)[C@@H]4C[C@H]53)C[C@@]34c5ccccc5N5C(=O)CC=C([C@H]1C[C@H]23)[C@H]54 [ISOSUNGUCINE]
Return: inactive

Enquiry: Outcome? CNc1cccnc1/C=N/N=C(/N)S
Return: inactive

Enquiry: Outcome? CCOC(=N)CC(=O)NC(C)c1ccccc1 (stereo not given)
Return: inactive

Enquiry: Outcome? CN(C)c1ccc(/C=C(\NC(=O)c2ccccc2)C(=O)NC(Cc2c[nH]c3ccccc23)C(=O)O)cc1 (stereo not given)
Return: inactive

Enquiry: Outcome? OCC1(CNc2cc(Cl)ncn2)CCC1
Return: inactive

Enquiry: Outcome? Nc1ccc2ncc(NCc3ccc(F)cc3)nc2c1
Return: inactive

Enquiry: Outcome? c1cc2ccc3cc4ncccc4c4ccc(c1)c2c34
Return: inactive

Enquiry: Outcome? c1ccc(CCCNc2nnnc3ccccc23)cc1
Return: inactive

Enquiry: Outcome? COC1CC(C)C(OC)c2cc(O)cc(c2O)NC(=O)/C(C)=C/C=C\C(C)C(OC(N)=O)/C(C)=C\C(C)C1OC (stereo not given)
Return: active

Enquiry: Outcome? Cn1c(=O)oc2cc(Br)ccc21
Return: inactive

Enquiry: Outcome? COc1ccc(OC)c2c3c([nH]c12)C(=O)Nc1nc(N)nc(N)c1C3
Return: inactive

Enquiry: Outcome? CCOC(=O)N/N=C(/N)c1cccc([N+](=O)[O-])c1
Return: inactive

Enquiry: Outcome? COc1cc(NC(C)=O)ccc1C(=O)N/N=C/c1ccc(Cl)cc1Cl
Return: inactive

Enquiry: Outcome? CC(CNC(N)=O)NC(N)=O (stereo not given)
Return: inactive

Enquiry: Outcome? COC(=O)C1=C(O)C(C(=O)OC)[C@]2(O)[C@H](C(=O)OC)[C@H]1C[C@@H](c1cccc(OC)c1)[C@H]2C(=O)OC (stereo not given in full)
Return: inactive

Enquiry: Outcome? N/C(=N\Nc1ccc(Cl)cc1)c1cnccn1
Return: inactive

Enquiry: Outcome? Cc1ccc(S(=O)(=O)N2CC2CCCCC=O)cc1 (stereo not given)
Return: inactive

Enquiry: Outcome? C#C[C@]1(O)CC[C@H]2[C@@H]3CCc4cc(O)ccc4[C@H]3CC[C@@]21C [ETHINYL ESTRADIOL]
Return: inactive

Enquiry: Outcome? Cc1nc2sccn2c1C(=O)NC(=O)Nc1ccc(Cl)cc1
Return: inactive

Enquiry: Outcome? COc1ccccc1NC(=O)CC(=O)N1N=C(c2ccccc2)C(/N=N/c2ccc(Cl)cc2)C1=O (stereo not given)
Return: inactive

Enquiry: Outcome? CCOC(=O)C(Cc1ccc(OC(=O)OC(C)(C)C)cc1)NC(=O)OC(C)(C)C (stereo not given)
Return: inactive

Enquiry: Outcome? COC(=O)/C(=C\c1ccco1)P(=O)(OC)OC
Return: inactive

Enquiry: Outcome? O=C(Nc1cc(Cl)cc(Cl)c1)/C(Cc1nc2ccccc2nc1O)=N/NC(=O)c1ccncc1
Return: inactive

Enquiry: Outcome? O=C(Cn1c(=O)oc2ccc(C(=O)c3ccc(F)cc3)cc21)c1ccccc1
Return: inactive

Enquiry: Outcome? COC(=O)c1c(C)cc2c(c1O)C1(O)C(=O)c3cc4c(c(O)c3C(=O)C1(OC)C(O)C2)C(=O)C=C(NC1OC(C)C(OC)C(O)C1OC)C4=O (stereo not given)
Return: active

Enquiry: Outcome? O=c1c2ccccc2c(=O)c2c1c1[nH]c3ccccc3c1c1c(=O)c3ccccc3c(=O)c21
Return: inactive

Enquiry: Outcome? C[N+](C)(C)CC(=O)N/N=C(\C(=O)Nc1ccc(Cl)cc1)C1C(=O)N(c2ccccc2)N=C1N (stereo not given)
Return: inactive

Enquiry: Outcome? O=C1/C(=C/c2ccc(Cl)cc2)N=C(c2ccccc2)N1C1Nc2cc3c(cc2S1)NC(N1C(=O)/C(=C/c2ccc(Cl)cc2)N=C1c1ccccc1)S3 (stereo not given)
Return: inactive

Enquiry: Outcome? C=C1CC(CC(=O)C(C)CC2CC(=C)C(=O)O2)OC1=O (stereo not given)
Return: inactive

Enquiry: Outcome? CCOC(=O)/C(C(C)=O)=C1/N[C@H](C(=O)OCC)CS1
Return: inactive

====

Assignment: determine reported GI50 for the given compounds.
Test system: NCI-H460
METHOD_SUMMARY: NCI tumour cell line growth inhibition, 48 h
Activity calls are given as the source filed them. Cut-off read from the data, not from the text of the source: active = GI50 up to about 1.1 µM and inactive = higher.

Enquiry: For CC(=O)OC1=CC2=CC[C@H]3[C@@H]4CCC(=O)[C@@]4(C)CC(=O)[C@]3(S)[C@@]2(C)CC1 , write its GI50.
Return: 25.2 µM (inactive)

Enquiry: For [N-]=[N+]=NC[C@H]1OCO[C@H](CN=[N+]=[N-])[C@@H](OCCOCCCl)[C@@H]1OCCOCCCl , write its GI50.
Return: > 100 µM (inactive)

Enquiry: For O=C1C=CC(=O)N1c1ccc(I)cc1 , write its GI50.
Return: 33.5 µM (inactive)

Enquiry: For CCCCCCCCCCCC(=O)NCc1ccc(OC(=O)CCCCCCCCCCC)c(OC)c1 , write its GI50.
Return: > 100 µM (inactive)

Enquiry: For COc1cccc(CCn2c(N)c(C(=O)O)c3ccc([N+](=O)[O-])cc3c2=O)c1 , write its GI50.
Return: 32.8 µM (inactive)

Enquiry: For CN(C)CCNCc1ccc2c(-c3ccccc3)nc3cc(Cl)c(Cl)cc3n12 , write its GI50.
Return: 9.68 µM (inactive)

Enquiry: For O=C(/C=C/c1ccc(Cl)cc1)c1ccc(Cl)c(Cl)c1 , write its GI50.
Return: 34.6 µM (inactive)

Enquiry: For C=C1CCCC2[C@](C)(CC3=C(O)C(=O)C=C(OC)C3=O)[C@@H](C)CC[C@]12C (some centres not stated) , write its GI50.
Return: 2.8 µM (inactive)

Enquiry: For COc1ccc(C(=O)NCCN(C)C)c2nc3ccccc3cc12 , write its GI50.
Return: 0.0255 µM (active)

Enquiry: For CCOC(=N)CC(=O)NC(C)c1ccccc1 (configuration not stated) , write its GI50.
Return: > 100 µM (inactive)

Enquiry: For CCOC(=O)C(SCCO)C(C(=O)OCC)n1cnc2c(N)ncnc21 (configuration not stated) , write its GI50.
Return: 12.4 µM (inactive)

Enquiry: For COc1ccc2c3c([nH]c2c1)CCN(Cc1ccccc1)C3 , write its GI50.
Return: 17 µM (inactive)

Enquiry: For O=CC1=CCCC2(C1)OCCO2 , write its GI50.
Return: > 100 µM (inactive)

Enquiry: For O=C1OC(c2ccccc2)=N/C1=C/NC(CS)C(=O)O (configuration not stated) , write its GI50.
Return: > 100 µM (inactive)

Enquiry: For O=C(NCc1ccccc1)c1cnc(Cl)cn1 , write its GI50.
Return: > 100 µM (inactive)

Enquiry: For O=C(CC(O)(C(F)(F)F)C(F)(F)Cl)CC(O)(C(F)(F)F)C(F)(F)Cl (configuration not stated) , write its GI50.
Return: 1.64 µM (inactive)

Enquiry: For C#C[C@]1(O)CC[C@H]2[C@@H]3CCc4cc(O)ccc4[C@H]3CC[C@@]21C [ETHINYL ESTRADIOL] , write its GI50.
Return: 21.7 µM (inactive)

Enquiry: For CC1(C)O[C@H](C(=O)O)[C@@H](C(=O)O)O1 , write its GI50.
Return: > 100 µM (inactive)

Enquiry: For COc1cc(C2c3cc4c(cc3OC3(OC)COC(=O)C23)OCO4)cc(OC)c1OC (configuration not stated) , write its GI50.
Return: 0.38 µM (active)

Enquiry: For COc1cccc(C2CC(C)(O)Oc3cc4c(cc32)OCO4)c1O (configuration not stated) , write its GI50.
Return: 32.6 µM (inactive)

Enquiry: For CCn1c(=O)ccc2ccc(N(CCO)CCO)nc21 , write its GI50.
Return: > 100 µM (inactive)

Enquiry: For CC(=O)OC1=C(CC(C)(C)C)C(=O)c2ccccc2C1=O , write its GI50.
Return: 25 µM (inactive)
